Could you please report measured normalized growth for the items listed next?
assay: chemical genetic growth profiling, strain panel (AID 1159580);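 further: tested at 20 µM; growth read once vehicle control cultures reached saturation at 30 °C; 1 = growth at the plate median or of vehicle wells; lower values mean less growth of the strain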; conditions: S. cerevisiae deletion strains, growth OD, locus YMR129W, hits give low values
In all, about 5,500 compounds went through this assay and about 2,000 (36%) were called active. Roughly 18% stayed inconclusive and do not appear here. Some of the results follow.
Give bare numbers.

Oc1cccc(O)c1 :: 0.974

Record normalized growth per entry; entries follow.
1. CCCc1cc(=O)[nH]c(=S)[nH]1
2. CCOC(=O)[C@H](CCc1ccccc1)N[C@@H](C)C(=O)N1CCC[C@H]1C(=O)O
3. O=C(O)c1cc(O)c2c(c1)[C@@H]([C@H]1c3cc(C(=O)O)cc(O)c3C(=O)c3c(O[C@H]4O[C@H](CO)[C@@H](O)[C@H](O)[C@H]4O)cccc31)c1cccc(O[C@H]3O[C@H](CO)[C@@H](O)[C@H](O)[C@H]3O)c1C2=O
4. CC(C)CCCC(C)C1CCC2C3CC(=O)[C@H]4C[C@@H](O)CC[C@]4(C)C3CC[C@]12C (stereo not given in full)
5. NC1=NCCN1CC(=O)O
6. CN(C)CCCN1c2ccccc2Sc2ccc(Cl)cc21

1: 1.02; 2: 1.01; 3: 1.04; 4: 1; 5: 1; 6: 0.0771

Record normalized growth per entry; entries follow.
1. CC(=O)O[C@H]1CC[C@@]2(C)C(=CC(=O)C3C4CCC(C(C)CCCC(C)C)[C@@]4(C)CCC32)C1 (stereo not given in full)
2. CCC(C)C(=O)OC1[C@@H]2CC3=C4CC(=O)O[C@@H](c5ccoc5)[C@]4(C)CCC3[C@@](C)(C2=O)[C@@H](CC(=O)OC)C1(C)C (stereo not given in full)
3. Cc1cc(=O)[nH]c(=S)[nH]1
4. CCN(CC)CCOCCOC(=O)C1(c2ccccc2)CCCC1
5. NC(Cn1ccc(=O)c(O)c1)C(=O)O (stereo not given)
6. COC1CC2CCC(C)C(O)(O2)C(=O)C(=O)N2CCCCC2C(=O)OC(C(C)CC2CCC(O)C(OC)C2)CC(=O)C(C)/C=C(\C)C(O)C(OC)C(=O)C(C)CC(C)/C=C/C=C/C=C/1C (stereo not given)
7. Cc1c(C)c2c(c(C)c1O)CCC(C)(CCCC(C)CCCC(C)CCCC(C)C)O2 (stereo not given)

0.989
1.01
0.969
0.997
1.01
0.0593
0.979

Record normalized growth per entry; entries follow.
1. C/C1=C/CC(C)(C)/C=C/C/C(C)=C/CC1
2. C[n+]1ccccc1/C=N/O
3. CN(C)CCCN1c2ccccc2CCc2ccc(Cl)cc21
4. O=C(O)C1=CCCNC1

1. 0.992
2. 0.998
3. 1
4. 0.992

Record normalized growth per entry; entries follow.
1. CC(C)CCCC(C)[C@H]1CCC2C3CC=C4CC(=O)CC[C@]4(C)C3CC[C@@]21C (stereo not given in full)
2. C/C=C\C1=C(C(=O)O)N2C(=O)C(NC(=O)C(N)c3ccc(O)cc3)C2SC1 (stereo not given)

1: 1; 2: 1.01
